# tgt: Protein kinase C epsilon type (Homo sapiens, UniProt Q02156)
# Sequence (Q02156 whole entry): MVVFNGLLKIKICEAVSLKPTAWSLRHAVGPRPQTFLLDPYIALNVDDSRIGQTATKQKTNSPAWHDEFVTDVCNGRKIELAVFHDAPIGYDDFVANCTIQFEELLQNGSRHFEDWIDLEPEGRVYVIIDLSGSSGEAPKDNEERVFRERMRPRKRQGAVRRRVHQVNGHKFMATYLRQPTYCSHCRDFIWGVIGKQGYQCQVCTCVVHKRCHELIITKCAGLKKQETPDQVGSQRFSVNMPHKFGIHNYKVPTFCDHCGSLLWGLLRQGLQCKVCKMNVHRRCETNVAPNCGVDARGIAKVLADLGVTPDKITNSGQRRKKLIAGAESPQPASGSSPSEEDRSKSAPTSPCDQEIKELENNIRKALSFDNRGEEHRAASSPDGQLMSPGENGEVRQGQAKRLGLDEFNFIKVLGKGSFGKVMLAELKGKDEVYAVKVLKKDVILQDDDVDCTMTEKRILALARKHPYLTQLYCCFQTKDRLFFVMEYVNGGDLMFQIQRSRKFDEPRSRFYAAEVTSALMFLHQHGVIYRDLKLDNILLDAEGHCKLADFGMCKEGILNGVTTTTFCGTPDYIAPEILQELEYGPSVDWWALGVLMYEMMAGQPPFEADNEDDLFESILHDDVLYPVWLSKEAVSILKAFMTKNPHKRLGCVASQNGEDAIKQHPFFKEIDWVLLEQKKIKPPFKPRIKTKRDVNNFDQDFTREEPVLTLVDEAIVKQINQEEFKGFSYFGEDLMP
# assay_comment: Inhibitory concentration against recombinant human Protein kinase C epsilon isozyme
readout_name: pIC50
Scale note: pIC50 = -log10(concentration in M).

Exam item: Give pIC50 for the following compound: `O=C(N[C@@H]1CSCCC[C@H]1OC(=O)c1cc(O)c(C(=O)c2c(O)cccc2C(=O)O)c(O)c1)c1ccc(O)cc1`
Marked response: 5.23

Exam item: Give pIC50 for the following compound: `O=C(N[C@@H]1C[C@@H](CO)C[C@H]1OC(=O)c1cc(O)c(C(=O)c2c(O)cccc2C(=O)O)c(O)c1)c1ccc(O)cc1`
Marked response: 6.57

Exam item: Give pIC50 for the following compound: O=C(N[C@@H]1CC(O)C[C@H]1OC(=O)c1cc(O)c(C(=O)c2c(O)cccc2C(=O)O)c(O)c1)c1ccc(O)cc1 (some centres undefined)
Marked response: 7.00

Exam item: Give pIC50 for the following compound: `NC[C@H]1C[C@@H](NC(=O)c2ccc(O)cc2)[C@H](OC(=O)c2cc(O)c(C(=O)c3c(O)cccc3C(=O)O)c(O)c2)C1`
Marked response: 7.52

Exam item: Give pIC50 for the following compound: `O=C(N[C@@H]1COCCC[C@H]1OC(=O)c1cc(O)c(C(=O)c2c(O)cccc2C(=O)O)c(O)c1)c1ccc(O)cc1`
Marked response: 4.80

Exam item: Give pIC50 for the following compound: `O=C(N[C@@H]1C[C@H](CO)C[C@H]1OC(=O)c1cc(O)c(C(=O)c2c(O)cccc2C(=O)O)c(O)c1)c1ccc(O)cc1`
Marked response: 6.80

Exam item: Give pIC50 for the following compound: `O=C(N[C@@H]1C[C@@H](O)C[C@H]1OC(=O)c1cc(O)c(C(=O)c2c(O)cccc2C(=O)O)c(O)c1)c1ccc(O)cc1`
Marked response: 6.82

Exam item: Give pIC50 for the following compound: `CS(=O)(=O)N1C[C@@H](NC(=O)c2ccc(O)cc2)[C@H](OC(=O)c2cc(O)c(C(=O)c3c(O)cccc3C(=O)O)c(O)c2)C1`
Marked response: 5.89

Exam item: Give pIC50 for the following compound: O=C(N[C@@H]1C2CCC(C2)[C@H]1OC(=O)c1cc(O)c(C(=O)c2c(O)cccc2C(=O)O)c(O)c1)c1ccc(O)cc1 (some centres undefined)
Marked response: 7.52

Exam item: Give pIC50 for the following compound: `COC(=O)N1C[C@@H](NC(=O)c2ccc(O)cc2)[C@H](OC(=O)c2cc(O)c(C(=O)c3c(O)cccc3C(=O)O)c(O)c2)C1`
Marked response: 5.32

Exam item: Give pIC50 for the following compound: `O=C(N[C@@H]1CS(=O)(=O)CCC[C@H]1OC(=O)c1cc(O)c(C(=O)c2c(O)cccc2C(=O)O)c(O)c1)c1ccc(O)cc1`
Marked response: 4.35

Exam item: Give pIC50 for the following compound: `N[C@@H]1C[C@@H](NC(=O)c2ccc(O)cc2)[C@H](OC(=O)c2cc(O)c(C(=O)c3c(O)cccc3C(=O)O)c(O)c2)C1`
Marked response: 8.00

Exam item: Give pIC50 for the following compound: `CC(C)N1C[C@@H](NC(=O)c2ccc(O)cc2)[C@H](OC(=O)c2cc(O)c(C(=O)c3c(O)cccc3C(=O)O)c(O)c2)C1`
Marked response: 7.30

Exam item: Give pIC50 for the following compound: CC1(C)C2CCC1(C)[C@@H](OC(=O)c1cc(O)c(C(=O)c3c(O)cccc3C(=O)O)c(O)c1)[C@@H]2NC(=O)c1ccc(O)cc1 (some centres undefined)
Marked response: 5.44

* * *

# tgt: Protein kinase C gamma type (Homo sapiens)
# assay_comment: Inhibitory concentration against recombinant human Protein kinase C gamma isozyme
pIC50: −log10 of the molar value.
Is pIC50 at least 7? Then satisfied. If not, not satisfied.

Exam item: Hi, just wondering whether `O=C(N[C@@H]1CSCCC[C@H]1OC(=O)c1cc(O)c(C(=O)c2c(O)cccc2C(=O)O)c(O)c1)c1ccc(O)cc1` shows pIC50 of 7 or higher.
Marked response: not satisfied

Exam item: Hi, just wondering whether `O=C(N[C@H]1CNCCC[C@@H]1OC(=O)c1cc(O)c(C(=O)c2c(O)cccc2C(=O)O)c(O)c1)c1ccc(O)cc1` shows pIC50 of 7 or higher.
Marked response: not satisfied

Exam item: Hi, just wondering whether CC1(C)C2CCC1(C)[C@@H](OC(=O)c1cc(O)c(C(=O)c3c(O)cccc3C(=O)O)c(O)c1)[C@@H]2NC(=O)c1ccc(O)cc1 (stereo partly specified) shows pIC50 of 7 or higher.
Marked response: not satisfied

Exam item: Hi, just wondering whether `COC(=O)N1C[C@@H](NC(=O)c2ccc(O)cc2)[C@H](OC(=O)c2cc(O)c(C(=O)c3c(O)cccc3C(=O)O)c(O)c2)C1` shows pIC50 of 7 or higher.
Marked response: not satisfied

Exam item: Hi, just wondering whether `O=C(N[C@@H]1CNCCC[C@H]1OC(=O)c1cc(O)c(C(=O)c2c(O)cccc2C(=O)O)c(O)c1)c1ccc(O)cc1` shows pIC50 of 7 or higher.
Marked response: satisfied

* * *

# tgt: UniProt P24723
# Sequence (P24723 whole entry): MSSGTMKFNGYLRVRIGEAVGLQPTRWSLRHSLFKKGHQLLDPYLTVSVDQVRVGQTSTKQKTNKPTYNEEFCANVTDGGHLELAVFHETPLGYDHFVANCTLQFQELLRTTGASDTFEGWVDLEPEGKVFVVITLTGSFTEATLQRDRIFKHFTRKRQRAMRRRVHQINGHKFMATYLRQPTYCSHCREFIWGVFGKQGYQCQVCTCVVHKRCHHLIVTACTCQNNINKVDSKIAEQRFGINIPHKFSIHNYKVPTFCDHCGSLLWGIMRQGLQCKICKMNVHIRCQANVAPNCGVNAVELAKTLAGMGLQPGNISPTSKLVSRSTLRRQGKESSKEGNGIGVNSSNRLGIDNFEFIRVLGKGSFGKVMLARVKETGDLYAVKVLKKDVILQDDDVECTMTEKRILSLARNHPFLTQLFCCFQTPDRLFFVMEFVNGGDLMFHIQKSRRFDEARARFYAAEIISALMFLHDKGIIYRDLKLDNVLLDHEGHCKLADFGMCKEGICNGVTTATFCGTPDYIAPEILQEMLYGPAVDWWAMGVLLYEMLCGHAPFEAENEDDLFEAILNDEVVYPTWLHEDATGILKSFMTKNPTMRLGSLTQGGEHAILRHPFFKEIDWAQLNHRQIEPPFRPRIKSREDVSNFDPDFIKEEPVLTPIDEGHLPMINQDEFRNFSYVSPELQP
# assay_comment: Inhibitory concentration against recombinant human Protein kinase C eta isozyme
readout_name: pIC50
Scale note: pIC50 = -log10(concentration in M).

Exam item: Give pIC50 for the following compound: O=C(N[C@@H]1CC(O)C[C@H]1OC(=O)c1cc(O)c(C(=O)c2c(O)cccc2C(=O)O)c(O)c1)c1ccc(O)cc1 (stereo not given in full)
Marked response: 8.52

Exam item: Give pIC50 for the following compound: `COC(=O)N1C[C@@H](NC(=O)c2ccc(O)cc2)[C@H](OC(=O)c2cc(O)c(C(=O)c3c(O)cccc3C(=O)O)c(O)c2)C1`
Marked response: 7.05

Exam item: Give pIC50 for the following compound: `CNC(=O)N1C[C@@H](NC(=O)c2ccc(O)cc2)[C@H](OC(=O)c2cc(O)c(C(=O)c3c(O)cccc3C(=O)O)c(O)c2)C1`
Marked response: 6.89

Exam item: Give pIC50 for the following compound: `O=C(N[C@@H]1CSCCC[C@H]1OC(=O)c1cc(O)c(C(=O)c2c(O)cccc2C(=O)O)c(O)c1)c1ccc(O)cc1`
Marked response: 7.00

Exam item: Give pIC50 for the following compound: `O=C(N[C@@H]1C[C@@H](CO)C[C@H]1OC(=O)c1cc(O)c(C(=O)c2c(O)cccc2C(=O)O)c(O)c1)c1ccc(O)cc1`
Marked response: 7.70

Exam item: Give pIC50 for the following compound: `N[C@@H]1C[C@@H](NC(=O)c2ccc(O)cc2)[C@H](OC(=O)c2cc(O)c(C(=O)c3c(O)cccc3C(=O)O)c(O)c2)C1`
Marked response: 8.52

Exam item: Give pIC50 for the following compound: `O=C(N[C@@H]1CS(=O)(=O)CCC[C@H]1OC(=O)c1cc(O)c(C(=O)c2c(O)cccc2C(=O)O)c(O)c1)c1ccc(O)cc1`
Marked response: 6.10

Exam item: Give pIC50 for the following compound: `O=C(N[C@@H]1C[C@H](CO)C[C@H]1OC(=O)c1cc(O)c(C(=O)c2c(O)cccc2C(=O)O)c(O)c1)c1ccc(O)cc1`
Marked response: 8.70

Exam item: Give pIC50 for the following compound: `CC(=O)N1C[C@@H](NC(=O)c2ccc(O)cc2)[C@H](OC(=O)c2cc(O)c(C(=O)c3c(O)cccc3C(=O)O)c(O)c2)C1`
Marked response: 7.52

Exam item: Give pIC50 for the following compound: `O=C(N[C@@H]1CNCC[C@H]1OC(=O)c1cc(O)c(C(=O)c2c(O)cccc2C(=O)O)c(O)c1)c1ccc(O)cc1`
Marked response: 7.05

Exam item: Give pIC50 for the following compound: `O=C(N[C@@H]1C[C@@H](O)C[C@H]1OC(=O)c1cc(O)c(C(=O)c2c(O)cccc2C(=O)O)c(O)c1)c1ccc(O)cc1`
Marked response: 8.40

Exam item: Give pIC50 for the following compound: `O=C(N[C@H]1CNCCC[C@@H]1OC(=O)c1cc(O)c(C(=O)c2c(O)cccc2C(=O)O)c(O)c1)c1ccc(O)cc1`
Marked response: 6.59

Exam item: Give pIC50 for the following compound: O=C(N[C@@H]1C2CCC(C2)[C@H]1OC(=O)c1cc(O)c(C(=O)c2c(O)cccc2C(=O)O)c(O)c1)c1ccc(O)cc1 (stereo not given in full)
Marked response: 7.70

Exam item: Give pIC50 for the following compound: `CC(C)N1C[C@@H](NC(=O)c2ccc(O)cc2)[C@H](OC(=O)c2cc(O)c(C(=O)c3c(O)cccc3C(=O)O)c(O)c2)C1`
Marked response: 8.40

Exam item: Give pIC50 for the following compound: `CS(=O)(=O)N1C[C@@H](NC(=O)c2ccc(O)cc2)[C@H](OC(=O)c2cc(O)c(C(=O)c3c(O)cccc3C(=O)O)c(O)c2)C1`
Marked response: 7.21

Exam item: Give pIC50 for the following compound: `O=C(N[C@@H]1CN2CCC(CC2)[C@H]1OC(=O)c1cc(O)c(C(=O)c2c(O)cccc2C(=O)O)c(O)c1)c1ccc(O)cc1`
Marked response: 7.59

Exam item: Give pIC50 for the following compound: `NC[C@H]1C[C@@H](NC(=O)c2ccc(O)cc2)[C@H](OC(=O)c2cc(O)c(C(=O)c3c(O)cccc3C(=O)O)c(O)c2)C1`
Marked response: 8.52

Exam item: Give pIC50 for the following compound: `O=C(N[C@@H]1COCCC[C@H]1OC(=O)c1cc(O)c(C(=O)c2c(O)cccc2C(=O)O)c(O)c1)c1ccc(O)cc1`
Marked response: 8.00

Exam item: Give pIC50 for the following compound: CC1(C)C2CCC1(C)[C@@H](OC(=O)c1cc(O)c(C(=O)c3c(O)cccc3C(=O)O)c(O)c1)[C@@H]2NC(=O)c1ccc(O)cc1 (stereo not given in full)
Marked response: 6.51

Exam item: Give pIC50 for the following compound: `NC[C@@H]1C[C@@H](NC(=O)c2ccc(O)cc2)[C@H](OC(=O)c2cc(O)c(C(=O)c3c(O)cccc3C(=O)O)c(O)c2)C1`
Marked response: 8.52
